# IC50 annotations
# Target or system: d746-750/T790M/C797S mutant EGFR (Homo sapiens, UniProt P00533, C797S/DEL746-750/T790M)
# Construct: purchased Reaction Biology Corp. (Malvern, PA, USA)
# Sequence (P00533 with tags, fused parts or gaps DEL746-750/T790M/C797S): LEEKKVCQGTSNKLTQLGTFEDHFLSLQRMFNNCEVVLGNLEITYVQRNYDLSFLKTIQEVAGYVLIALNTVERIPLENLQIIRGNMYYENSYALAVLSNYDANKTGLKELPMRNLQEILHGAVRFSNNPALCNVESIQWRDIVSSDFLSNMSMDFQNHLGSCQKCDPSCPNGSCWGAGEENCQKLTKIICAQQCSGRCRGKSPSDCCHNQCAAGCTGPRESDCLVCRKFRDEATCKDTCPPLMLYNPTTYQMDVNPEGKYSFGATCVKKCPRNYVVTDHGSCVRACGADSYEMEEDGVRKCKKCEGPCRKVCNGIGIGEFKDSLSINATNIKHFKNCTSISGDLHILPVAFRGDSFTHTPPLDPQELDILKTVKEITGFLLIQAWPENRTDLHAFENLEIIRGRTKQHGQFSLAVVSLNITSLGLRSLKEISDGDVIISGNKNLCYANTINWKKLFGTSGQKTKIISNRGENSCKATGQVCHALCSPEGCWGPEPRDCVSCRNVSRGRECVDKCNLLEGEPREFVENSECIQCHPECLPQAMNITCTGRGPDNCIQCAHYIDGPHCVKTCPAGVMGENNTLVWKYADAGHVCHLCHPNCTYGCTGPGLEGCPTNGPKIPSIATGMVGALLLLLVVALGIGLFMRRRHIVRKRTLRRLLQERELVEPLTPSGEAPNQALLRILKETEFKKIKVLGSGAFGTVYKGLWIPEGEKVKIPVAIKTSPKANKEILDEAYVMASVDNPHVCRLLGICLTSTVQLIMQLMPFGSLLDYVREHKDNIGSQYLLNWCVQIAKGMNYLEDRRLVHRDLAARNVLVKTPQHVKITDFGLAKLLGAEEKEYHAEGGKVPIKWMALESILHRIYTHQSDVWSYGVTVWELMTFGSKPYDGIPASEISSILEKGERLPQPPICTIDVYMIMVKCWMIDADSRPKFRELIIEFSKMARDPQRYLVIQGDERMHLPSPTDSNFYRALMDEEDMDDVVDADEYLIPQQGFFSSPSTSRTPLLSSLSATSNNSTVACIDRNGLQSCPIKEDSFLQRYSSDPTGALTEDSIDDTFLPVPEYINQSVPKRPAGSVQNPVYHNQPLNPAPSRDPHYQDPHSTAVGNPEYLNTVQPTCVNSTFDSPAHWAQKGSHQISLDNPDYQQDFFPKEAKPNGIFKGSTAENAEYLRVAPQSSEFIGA
# Procedure summary: radiometric ([γ-33P]-ATP) kinase assay, triple mutant EGFR
# Assay type: biochemical
# Reported conditions: Table 2, derivatives of 1; mean ± SD of two experiments; read-out: IC50 EGFR^d746-750/T790M/C797S
Outcome measure: IC50 (µM)

# Molecule, Unit descriptor, Measured value
data = [
    ("O=C1/C(=C/c2cc3ccccc3o2)Oc2c1ccc(O)c2CN1CCCCC1", "µM", 3.01),
    ("O=C1/C(=C/c2cc3cc(O)ccc3o2)Oc2c1ccc(O)c2CN1CCNCC1", "µM", 0.715),
    ("CC1CCN(Cc2c(O)ccc3c2O/C(=C\\c2cc4ccccc4o2)C3=O)CC1", "µM", 5.29),
    ("COc1ccc2oc(/C=C3\\Oc4c(ccc(O)c4CN4CCCC(C)C4)C3=O)cc2c1 (stereo not shown)", "µM", 20.1),
    ("CC1CCCN(Cc2c(O)ccc3c2O/C(=C\\c2cc4ccccc4o2)C3=O)C1 (stereo not shown)", "µM", 1.94),
    ("O=C1/C(=C/c2cc3ccccc3o2)Oc2c1ccc(O)c2CN1CCNCC1", "µM", 1.1),
    ("COc1ccc2oc(/C=C3\\Oc4c(ccc(O)c4CN4CCNCC4)C3=O)cc2c1", "µM", 1.63),
]

###

# Target or system: wild type EGFR (Homo sapiens)
# Construct: purchased Reaction Biology Corp. (Malvern, PA, USA)
# Sequence (P00533 25-1210): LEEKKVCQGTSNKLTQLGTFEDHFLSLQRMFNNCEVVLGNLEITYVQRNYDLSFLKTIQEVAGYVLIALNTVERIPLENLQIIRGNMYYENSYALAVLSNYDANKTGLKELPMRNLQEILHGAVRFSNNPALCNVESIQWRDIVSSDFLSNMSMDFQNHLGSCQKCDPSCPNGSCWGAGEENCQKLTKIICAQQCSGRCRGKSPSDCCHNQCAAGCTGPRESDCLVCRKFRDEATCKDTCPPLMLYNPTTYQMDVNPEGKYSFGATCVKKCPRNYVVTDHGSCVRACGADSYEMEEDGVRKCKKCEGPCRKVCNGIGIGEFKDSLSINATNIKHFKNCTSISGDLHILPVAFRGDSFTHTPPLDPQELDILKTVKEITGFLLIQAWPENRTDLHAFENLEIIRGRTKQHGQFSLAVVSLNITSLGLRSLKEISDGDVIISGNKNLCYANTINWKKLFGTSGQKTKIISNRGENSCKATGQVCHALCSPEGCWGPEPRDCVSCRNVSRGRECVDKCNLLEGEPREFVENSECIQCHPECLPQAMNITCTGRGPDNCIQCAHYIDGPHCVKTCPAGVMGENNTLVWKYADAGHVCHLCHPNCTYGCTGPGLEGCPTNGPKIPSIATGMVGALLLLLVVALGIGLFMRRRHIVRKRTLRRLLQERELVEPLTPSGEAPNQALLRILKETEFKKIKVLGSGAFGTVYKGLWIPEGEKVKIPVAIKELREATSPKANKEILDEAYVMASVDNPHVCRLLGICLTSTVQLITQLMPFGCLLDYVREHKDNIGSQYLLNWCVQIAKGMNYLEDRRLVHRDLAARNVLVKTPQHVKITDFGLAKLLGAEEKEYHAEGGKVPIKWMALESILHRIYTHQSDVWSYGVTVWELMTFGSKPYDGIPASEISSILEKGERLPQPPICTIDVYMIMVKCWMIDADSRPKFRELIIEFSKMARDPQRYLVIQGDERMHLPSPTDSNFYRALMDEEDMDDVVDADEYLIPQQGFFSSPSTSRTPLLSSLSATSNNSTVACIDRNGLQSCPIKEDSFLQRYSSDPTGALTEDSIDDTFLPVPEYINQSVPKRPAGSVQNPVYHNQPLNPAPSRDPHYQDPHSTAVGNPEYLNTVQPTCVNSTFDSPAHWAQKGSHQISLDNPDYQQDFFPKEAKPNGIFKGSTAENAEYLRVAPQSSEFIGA
# Procedure summary: radiometric ([γ-33P]-ATP) kinase assay, wild-type EGFR
# Type: biochemical
# Reported conditions: Table 3, derivatives of 2; wild type; mean ± SD of two experiments; read-out: IC50 EGFR
# IC50 annotations

# Molecule, IC50
data = [
    ("Cn1cnc(CNc2nc(-c3cc(C#N)ccc3O)nc3ccccc23)c1", "> 50 µM"),
    ("N#Cc1ccc(O)c(-c2nc(NCc3cc[nH]c3)c3ccccc3n2)c1", "> 50 µM"),
    ("N#Cc1ccc(O)c(-c2nc(NCc3c[nH]cn3)c3ccccc3n2)c1", "> 50 µM"),
    ("CCN(CC)CCCNc1nc(-c2cc(C#N)ccc2O)nc2ccccc12", "8.45 µM"),
    ("CCN(CC)CCCNc1nc(-c2ccccc2O)nc2ccccc12", "> 50 µM"),
    ("N#Cc1ccc(O)c(-c2nc(NCc3cocn3)c3ccccc3n2)c1", "> 50 µM"),
    ("Cn1cnc(CNc2nc(-c3cc(C=O)ccc3O)nc3ccccc23)c1", "0.935 µM"),
    ("Oc1ccccc1-c1nc(NCc2cscn2)c2ccccc2n1", "> 50 µM"),
    ("N#Cc1ccc(O)c(-c2nc(NCCc3c[nH]cn3)c3ccccc3n2)c1", "> 50 µM"),
]

###

# Target or system: d746-750/T790M/C797S mutant EGFR (Homo sapiens, UniProt P00533, C797S/DEL746-750/T790M)
# Construct: purchased Reaction Biology Corp. (Malvern, PA, USA)
# Procedure summary: radiometric ([γ-33P]-ATP) kinase assay, triple mutant EGFR
# Assay type: biochemical
# Reported conditions: Table 1; mean ± standard deviations of two experiments; read-out: IC50 d746-750/T790M/C797S
pIC50: −log10 of the molar value.
Outcome measure: pIC50

# Compound, Target or system, Outcome measure, Measured value
measured = [
    ("CC1CCCCN1Cc1c(O)ccc2c1O/C(=C\\c1cc3ccccc3o1)C2=O (stereo not shown) [Compound 1]", "d746-750/T790M/C797S mutant EGFR (Homo sapiens, UniProt P00533, C797S/DEL746-750/T790M)", "pIC50", 5.68),
    ("COc1ccccc1Nc1nc(N)nc(-c2oc3ccccc3c2C)n1 [Compound 3]", "d746-750/T790M/C797S mutant EGFR (Homo sapiens, UniProt P00533, C797S/DEL746-750/T790M)", "pIC50", 5.54),
    ("Oc1ccccc1-c1nc(NCCN2CCOCC2)c2ccccc2n1 [Compound 2]", "d746-750/T790M/C797S mutant EGFR (Homo sapiens, UniProt P00533, C797S/DEL746-750/T790M)", "pIC50", 5.76),
    ("c1ccc(CNc2ncnc3oc(-c4ccccc4)c(-c4ccccc4)c23)cc1 [Compound 4]", "d746-750/T790M/C797S mutant EGFR (Homo sapiens, UniProt P00533, C797S/DEL746-750/T790M)", "pIC50", 6.10),
]

###

# Selectivity Index (IC50^WT/IC50^mutant) annotations
# Target or system: d746-750/T790M/C797S mutant EGFR (Homo sapiens, UniProt P00533, C797S/DEL746-750/T790M)
# Construct: purchased Reaction Biology Corp. (Malvern, PA, USA)
# Procedure summary: radiometric ([γ-33P]-ATP) kinase assay, triple mutant EGFR
# Assay type: biochemical
# Reported conditions: Table 1; ratio of IC50 for the wild type to that for the triple mutant

# Compound, Selectivity Index (IC50^WT/IC50^mutant)
rows = [
    ("c1ccc(CNc2ncnc3oc(-c4ccccc4)c(-c4ccccc4)c23)cc1", 0.00733),
    ("COc1ccccc1Nc1nc(N)nc(-c2oc3ccccc3c2C)n1", 12.3),
    ("CC1CCCCN1Cc1c(O)ccc2c1O/C(=C\\c1cc3ccccc3o1)C2=O (stereo not shown)", 34.5),
    ("Oc1ccccc1-c1nc(NCCN2CCOCC2)c2ccccc2n1", 21.4),
]

###

# Target or system: d746-750/T790M/C797S mutant EGFR (Homo sapiens, UniProt P00533, C797S/DEL746-750/T790M)
# Construct: purchased Reaction Biology Corp. (Malvern, PA, USA)
# Procedure summary: radiometric ([γ-33P]-ATP) kinase assay, triple mutant EGFR
# Format: biochemical
# Reported conditions: Table 3; wild type IC50 over triple mutant IC50
Outcome measure: Selectivity

# Compound, Target or system, Outcome measure, Measured value
measured = [
    ("CCN(CC)CCCNc1nc(-c2cc(C#N)ccc2O)nc2ccccc12 [Compound 13]", "d746-750/T790M/C797S mutant EGFR (Homo sapiens, UniProt P00533, C797S/DEL746-750/T790M)", "Selectivity", 319),
    ("Cn1cnc(CNc2nc(-c3cc(C#N)ccc3O)nc3ccccc23)c1 [Compound 19]", "d746-750/T790M/C797S mutant EGFR (Homo sapiens, UniProt P00533, C797S/DEL746-750/T790M)", "Selectivity", ">14793"),
    ("N#Cc1ccc(O)c(-c2nc(NCc3cc[nH]c3)c3ccccc3n2)c1 [Compound 16]", "d746-750/T790M/C797S mutant EGFR (Homo sapiens, UniProt P00533, C797S/DEL746-750/T790M)", "Selectivity", ">693"),
    ("Cn1cnc(CNc2nc(-c3cc(C=O)ccc3O)nc3ccccc23)c1 [Compound 21]", "d746-750/T790M/C797S mutant EGFR (Homo sapiens, UniProt P00533, C797S/DEL746-750/T790M)", "Selectivity", 118),
    ("CCN(CC)CCCNc1nc(-c2ccccc2O)nc2ccccc12 [Compound 12]", "d746-750/T790M/C797S mutant EGFR (Homo sapiens, UniProt P00533, C797S/DEL746-750/T790M)", "Selectivity", ">96.9"),
    ("Oc1ccccc1-c1nc(NCCN2CCOCC2)c2ccccc2n1 [Compound 2]", "d746-750/T790M/C797S mutant EGFR (Homo sapiens, UniProt P00533, C797S/DEL746-750/T790M)", "Selectivity", 21.4),
    ("Oc1ccccc1-c1nc(NCc2cscn2)c2ccccc2n1 [Compound 14]", "d746-750/T790M/C797S mutant EGFR (Homo sapiens, UniProt P00533, C797S/DEL746-750/T790M)", "Selectivity", ">44.6"),
    ("N#Cc1ccc(O)c(-c2nc(NCc3cocn3)c3ccccc3n2)c1 [Compound 17]", "d746-750/T790M/C797S mutant EGFR (Homo sapiens, UniProt P00533, C797S/DEL746-750/T790M)", "Selectivity", ">84.3"),
    ("N#Cc1ccc(O)c(-c2nc(NCCc3c[nH]cn3)c3ccccc3n2)c1 [Compound 20]", "d746-750/T790M/C797S mutant EGFR (Homo sapiens, UniProt P00533, C797S/DEL746-750/T790M)", "Selectivity", ">10331"),
    ("N#Cc1ccc(O)c(-c2nc(NCc3c[nH]cn3)c3ccccc3n2)c1 [Compound 18]", "d746-750/T790M/C797S mutant EGFR (Homo sapiens, UniProt P00533, C797S/DEL746-750/T790M)", "Selectivity", ">6693"),
]

Data provenance is paper PMC7730458.
